These data points were gathered from paper PMC4626678.

pKd listing for selected binders.
- Target Desc: alpha-chymotrypsin (Bos taurus, UniProt P00766)
- Measurement Protocol: SPR
pKd: −log10 of the molar value.
Result Type: pKd

[
  {
    "Binder": "HCRG1 (protein) RGICSEPKVVGPCKAGLRRFYYDSETGECKPFIYGGCKGNKNNFETLHACRGICRA",
    "Measured": 8.74
  },
  {
    "Binder": "HCRG2 (protein) RGICLEPKVVGPCKARIRRFYYDSETGKCTPFIYGGCGGNGNNFETLHACRGICRA",
    "Measured": 8.80
  }
]
